All figures here come from patent US8148391B2.

molecular target: baculovirus-expressed ALK (Homo sapiens, UniProt Q9UM73); construct: host or cells: baculovirus expression system; assay: ALK Kinase Assay (ELISA-type, time-resolved fluorescence); type: biochemical; settings: ALK kinase inhibition, 1 μM ATP; read-out: ALK Activity
Sequence (Q9UM73 19-1620): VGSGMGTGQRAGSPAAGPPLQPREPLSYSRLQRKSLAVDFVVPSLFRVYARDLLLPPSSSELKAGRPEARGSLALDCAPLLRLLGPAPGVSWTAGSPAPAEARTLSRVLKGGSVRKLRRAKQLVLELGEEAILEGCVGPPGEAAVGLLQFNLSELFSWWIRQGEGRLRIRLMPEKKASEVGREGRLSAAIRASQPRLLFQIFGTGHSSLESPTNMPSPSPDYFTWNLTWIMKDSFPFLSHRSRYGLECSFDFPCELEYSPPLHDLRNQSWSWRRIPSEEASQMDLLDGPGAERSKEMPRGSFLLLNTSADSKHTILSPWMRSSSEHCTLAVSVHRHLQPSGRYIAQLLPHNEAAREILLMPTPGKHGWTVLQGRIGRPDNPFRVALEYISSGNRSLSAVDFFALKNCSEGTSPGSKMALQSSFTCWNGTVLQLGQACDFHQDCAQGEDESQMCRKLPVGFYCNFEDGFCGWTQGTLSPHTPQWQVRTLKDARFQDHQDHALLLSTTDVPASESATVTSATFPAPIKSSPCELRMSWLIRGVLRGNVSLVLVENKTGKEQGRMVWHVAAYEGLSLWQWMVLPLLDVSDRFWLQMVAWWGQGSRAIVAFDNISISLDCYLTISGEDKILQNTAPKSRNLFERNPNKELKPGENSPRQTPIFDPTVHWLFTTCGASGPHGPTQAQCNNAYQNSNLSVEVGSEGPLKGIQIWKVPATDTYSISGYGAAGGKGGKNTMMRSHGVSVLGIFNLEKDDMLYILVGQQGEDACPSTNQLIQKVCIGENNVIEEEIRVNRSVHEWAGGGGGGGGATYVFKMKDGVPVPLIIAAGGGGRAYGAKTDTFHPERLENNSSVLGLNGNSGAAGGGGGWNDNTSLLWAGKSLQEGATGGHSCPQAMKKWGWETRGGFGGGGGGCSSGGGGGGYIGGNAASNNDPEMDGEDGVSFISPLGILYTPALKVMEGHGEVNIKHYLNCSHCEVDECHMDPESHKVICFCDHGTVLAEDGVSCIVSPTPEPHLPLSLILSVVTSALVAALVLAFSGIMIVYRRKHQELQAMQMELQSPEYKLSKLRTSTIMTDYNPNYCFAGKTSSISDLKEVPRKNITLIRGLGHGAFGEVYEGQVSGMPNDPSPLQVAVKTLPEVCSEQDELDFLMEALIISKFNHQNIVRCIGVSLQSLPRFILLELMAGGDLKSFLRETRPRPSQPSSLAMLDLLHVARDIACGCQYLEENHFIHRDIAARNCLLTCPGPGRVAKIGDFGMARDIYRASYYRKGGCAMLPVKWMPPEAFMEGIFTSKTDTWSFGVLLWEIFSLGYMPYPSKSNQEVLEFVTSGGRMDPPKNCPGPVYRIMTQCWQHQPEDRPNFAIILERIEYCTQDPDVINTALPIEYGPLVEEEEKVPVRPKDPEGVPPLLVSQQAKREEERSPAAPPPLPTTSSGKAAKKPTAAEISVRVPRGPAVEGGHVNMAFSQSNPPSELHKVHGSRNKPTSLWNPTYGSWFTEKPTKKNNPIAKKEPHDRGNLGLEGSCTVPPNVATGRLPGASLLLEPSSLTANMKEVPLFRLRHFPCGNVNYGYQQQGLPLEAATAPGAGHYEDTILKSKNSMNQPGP
measuredAttribute: IC50

INSERT INTO assay_data (structuresmiles, measuredattribute, measvalue) VALUES
  ('COc1cc2c(cc1Nc1ncc(Cl)c(Nc3ccccc3S(=O)(=O)N(C)C)n1)CCN(CCOC(=O)[C@@H](N)C(C)C)CC2', 'IC50', '< 100 nM'),
  ('CC(C)[C@@H](Nc1nc(Nc2ccc3c(c2)CC(=O)N(C)CC3)ncc1Cl)C(N)=O', 'IC50', '1000 to 10000 nM'),
  ('CNC(=O)c1cccc(Cl)c1Nc1nc(Nc2ccc3c(c2)C(C)(C)NC(=O)CC3)ncc1Cl', 'IC50', '< 100 nM'),
  ('CNC(=O)c1cccc(Br)c1Nc1nc(Nc2ccc3c(c2)CCOC(=O)N3C)ncc1Cl', 'IC50', '1000 to 10000 nM'),
  ('CNC(=O)c1ccccc1Nc1nc(Nc2cc3c(cc2OC)NC(=O)CCC3(C)C)ncc1Cl', 'IC50', '< 100 nM'),
  ('CNC(=O)c1cc(F)cc(F)c1Nc1nc(Nc2ccc3c(c2)N(C(C)=O)CCCC3(C)C)ncc1Cl', 'IC50', '100 to 1000 nM'),
  ('CCN1CCNCc2cc(OC)c(Nc3ncc(Cl)c(N[C@H]4[C@@H](C(N)=O)[C@@H]5C=C[C@H]4C5)n3)cc21', 'IC50', '< 100 nM');

====

target: c-Met (cytoplasmic domain) (Homo sapiens); construct: 10 ng/mL c-Met (cytoplasmic domain, Invitrogen Corporation #PV3143); purchased Invitrogen Corporation PV3143; assay: c-Met Kinase Assay (same methods as for ALK, with modifications); format: biochemical; conditions: 1 μM ATP (Km level), 10 ng/mL c-Met; read-out: cMet Activity (c-Met kinase inhibition, IC50 class)
Sequence (P08581 956-1390 limits assumed): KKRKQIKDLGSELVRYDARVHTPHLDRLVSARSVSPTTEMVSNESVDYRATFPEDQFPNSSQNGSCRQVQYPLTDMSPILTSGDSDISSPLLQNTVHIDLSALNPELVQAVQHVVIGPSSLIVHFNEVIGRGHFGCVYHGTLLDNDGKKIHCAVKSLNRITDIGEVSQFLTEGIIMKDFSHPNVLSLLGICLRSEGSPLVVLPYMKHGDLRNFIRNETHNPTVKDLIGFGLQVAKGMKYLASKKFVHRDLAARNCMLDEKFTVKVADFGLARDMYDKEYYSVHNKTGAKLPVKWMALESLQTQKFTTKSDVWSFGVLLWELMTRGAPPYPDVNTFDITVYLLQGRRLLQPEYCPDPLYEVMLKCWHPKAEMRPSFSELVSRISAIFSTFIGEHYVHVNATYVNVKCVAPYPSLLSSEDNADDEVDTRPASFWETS
pIC50: −log10 of the molar value.
measuredAttribute: pIC50

INSERT INTO results (compound, measvalue) VALUES
  ('CNC(=O)c1cc(-c2cnn(C)c2)cc(F)c1Nc1nc(Nc2ccc3c(c2)NC(=O)CCC3)ncc1Cl', '> 7.00'),
  ('CCNC(=O)c1ccccc1Nc1nc(Nc2c(OC)ccc3c2CC(=O)N(CC)CC3)ncc1Cl', '< 5.00'),
  ('CN1C(=O)OCCc2cc(Nc3ncc(Cl)c(Nc4c(F)cccc4OC4CCOC4)n3)ccc21 (stereo not shown)', '> 7.00'),
  ('COCCN1CCc2cc(Nc3ncc(Cl)c(Nc4ccccc4S(=O)(=O)N(C)C)n3)c(OC)cc2CC1', '5.00 to 6.00'),
  ('C#CCNC(=O)c1cccc(F)c1Nc1nc(Nc2ccc3c(c2)OCCCN3C(=O)OCCOC)ncc1Cl', '6.00 to 7.00'),
  ('CCN1C(=O)CCCc2c1ccc(Nc1ncc(Cl)c(Nc3ccccc3-n3cccn3)n1)c2OC', '< 5.00'),
  ('COc1cc2c(cc1Nc1ncc(Cl)c(Nc3cc(C#N)ccc3OC)n1)CCN(CC(=O)N(C)C)CC2', '5.00 to 6.00');

====

target: baculovirus-expressed ALK (Homo sapiens); construct: host or cells: baculovirus expression system; assay: ALK Kinase Assay (ELISA-type, time-resolved fluorescence); type: biochemical; conditions: ALK kinase inhibition, 1 μM ATP; read-out: ALK Activity
measuredAttribute: IC50

INSERT INTO measurements (structuresmiles, targetsystem, measvalue) VALUES
  ('CNC(=O)c1sc(Br)c(C)c1Nc1nc(Nc2ccc3c(c2)CCOC(=O)N3C)ncc1Cl', 'baculovirus-expressed ALK (Homo sapiens)', '100 to 1000 nM'),
  ('C#CCNC(=O)c1cccc(F)c1Nc1nc(Nc2ccc3c(c2)N(C(C)=O)CCCC3)ncc1Cl', 'baculovirus-expressed ALK (Homo sapiens)', '100 to 1000 nM'),
  ('C#CCNC(=O)c1cccc(F)c1Nc1nc(Nc2ccc3c(c2)N(C(=O)CN2C(=O)c4ccccc4C2=O)CCCC3(C)C)ncc1Cl', 'baculovirus-expressed ALK (Homo sapiens)', '> 10000 nM'),
  ('CNC(=O)c1cccc(F)c1Nc1nc(Nc2ccc3c(c2)CCN(CCOC)CC3)ncc1Br', 'baculovirus-expressed ALK (Homo sapiens)', '< 100 nM'),
  ('CCNC(=O)c1ccccc1Nc1nc(Nc2cc3c(cc2OC)CN(Cc2ccccc2)CC(=O)N3)ncc1Cl', 'baculovirus-expressed ALK (Homo sapiens)', '< 100 nM'),
  ('CNC(=O)c1cccc(Cl)c1Nc1nc(Nc2ccc3c(c2)-n2ccnc2CCC3)ncc1Cl', 'baculovirus-expressed ALK (Homo sapiens)', '1000 to 10000 nM'),
  ('CCN1CCCC(C)(C)c2ccc(Nc3ncc(Cl)c(N[C@H]4[C@@H](C(N)=O)[C@@H]5C=C[C@H]4C5)n3)cc21', 'baculovirus-expressed ALK (Homo sapiens)', '< 100 nM');

====

target: baculovirus-expressed ALK (Homo sapiens); construct: host or cells: baculovirus expression system; assay: ALK Kinase Assay (ELISA-type, time-resolved fluorescence); type: biochemical; details: ALK kinase inhibition, 1 μM ATP; read-out: ALK Activity
# IC50 per entry
measuredAttribute: IC50

INSERT INTO assay_data (compound, measvalue) VALUES
  ('COc1cc2c(cc1Nc1ncc(Cl)c(Nc3ccccc3S(=O)(=O)N(C)C)n1)CCN(CC(=O)N1CCOCC1)CC2', '< 100 nM'),
  ('CNC(=O)c1sccc1Nc1nc(Nc2ccc3c(c2)NC(=O)CN(C(C)=O)C3)ncc1Cl', '100 to 1000 nM'),
  ('CCN1CC(=O)Nc2cc(Nc3ncc(Cl)c(N[C@@H]4CCCC[C@H]4NS(C)(=O)=O)n3)c(OC)cc2C1', '< 100 nM'),
  ('COc1cc2c(cc1Nc1ncc(Cl)c(Nc3ccccc3S(=O)(=O)N(C)C)n1)CCN(CCOC(=O)CN)CC2', '< 100 nM'),
  ('CNC(=O)c1cccc(F)c1Nc1nc(Nc2ccc3c(c2)OCCCN3)ncc1Cl', '100 to 1000 nM'),
  ('COCC(=O)NC1CC(C)(C)c2ccc(Nc3ncc(Cl)c(Nc4c(F)cccc4C(=O)NCC#N)n3)cc2NC1=O (centres unmarked)', '< 100 nM'),
  ('CCN1C(=O)CCCc2c1ccc(Nc1ncc(Cl)c(N[C@@H]3[C@@H]4C[C@@H]([C@@H](O)[C@H]4O)[C@@H]3C(N)=O)n1)c2OC', '100 to 1000 nM'),
  ('CN1CCc2ccc(Nc3ncc(Cl)c(Nc4ccccc4-c4cc[nH]n4)n3)cc2CC1=O', '> 10000 nM'),
  ('C#CCNC(=O)c1cccc(F)c1Nc1nc(Nc2ccc3c(c2)N(C(C)C)CCCC3(C)C)ncc1Cl', '1000 to 10000 nM'),
  ('CNC(=O)c1scc(C)c1Nc1nc(Nc2ccc3c(c2)CN(C)C(=O)CC3)ncc1Cl', '< 100 nM'),
  ('CNC(=O)c1ccccc1Nc1nc(Nc2ccc3c(c2)NC(=O)CN(Cc2ccccc2)C3)ncc1Cl', '100 to 1000 nM'),
  ('CNC(=O)c1ccsc1Nc1nc(Nc2ccc3c(c2)NC(=O)CCC3)ncc1Cl', '1000 to 10000 nM'),
  ('COc1cc2c(cc1Nc1ncc(Cl)c(N[C@@H]3CCCC[C@H]3NS(C)(=O)=O)n1)NC(=O)CN(Cc1ccccc1)C2', '< 100 nM'),
  ('CNC(=O)c1scc(C)c1Nc1nc(Nc2ccc3c(c2)CC(=O)NCC3)ncc1Cl', '< 100 nM'),
  ('COc1cc2c(cc1Nc1ncc(Cl)c(N[C@H]3[C@@H](C(N)=O)[C@@H]4C=C[C@H]3C4)n1)CCN(CC(=O)N1CCN(C)CC1)CC2', '< 100 nM'),
  ('COCCN1CC(=O)Nc2cc(Nc3ncc(Cl)c(N[C@H]4[C@@H](C(N)=O)[C@@H]5C=C[C@H]4C5)n3)c(OC)cc2C1', '< 100 nM'),
  ('CNC(=O)c1cccc(F)c1Nc1nc(Nc2ccc3c(c2)N(C(=O)CN2CCCC2)CCCO3)ncc1Cl', '1000 to 10000 nM'),
  ('COCCN1CCCC(C)(C)c2ccc(Nc3ncc(Cl)c(Nc4ccc(N5CCOCC5)cc4OC)n3)cc21', '100 to 1000 nM'),
  ('CCN1CC(=O)Nc2cc(Nc3ncc(Cl)c(Nc4c(F)cccc4C(=O)NC)n3)ccc2C1', '100 to 1000 nM'),
  ('CCN1CC(N2CCOCC2)COc2ccc(Nc3ncc(Cl)c(Nc4c(F)cccc4C(=O)NC)n3)cc21 (centres unmarked)', '< 100 nM'),
  ('Cc1cccc(C(N)=O)c1Nc1nc(Nc2ccc3c(c2)NC(=O)CCC3(C)C)ncc1Cl', '1000 to 10000 nM'),
  ('CNC(=O)c1cc(F)ccc1Nc1nc(Nc2ccc3c(c2)-c2nccn2CCC3)ncc1Cl', '1000 to 10000 nM'),
  ('CNC(=O)c1sccc1Nc1nc(Nc2ccc3c(c2)OCCCN3C(=O)OC2CCCN(C)C2)ncc1Cl (centres unmarked)', '100 to 1000 nM'),
  ('C#CCNC(=O)c1cccc(F)c1Nc1nc(Nc2ccc3c(c2)OCCCN3C(=O)OC2CCCN(C)C2)ncc1Cl (centres unmarked)', '100 to 1000 nM'),
  ('CNC(=O)c1cccc(Cl)c1Nc1nc(Nc2ccc3c(c2)CN(C)C(=O)CC3)ncc1Cl', '< 100 nM'),
  ('COc1cc2c(cc1Nc1ncc(Cl)c(Nc3ccccc3S(=O)(=O)N3CC[C@@H](O)C3)n1)CCN(C[C@@H](C)O)CC2', '< 100 nM'),
  ('CNC(=O)c1cccc(F)c1Nc1nc(Nc2ccc3c(c2)NC(=O)CN(CCOC)C3)ncc1Cl', '100 to 1000 nM'),
  ('CN1Cc2cc(Nc3ncc(Cl)c(Nc4cccc5c4OC(F)(F)O5)n3)ccc2CCC1=O', '< 100 nM'),
  ('CNC(=O)c1ccc2c(c1Nc1nc(Nc3ccc4c(c3)NC(=O)CCC4(C)C)ncc1Cl)OCO2', '100 to 1000 nM');
